Parameter: viability, T/C. Scope: all listed entries.
System: 926638-142-R-J1-PDC complex spheroid viability
Assay: Anticancer human tumor 926638-142-R-J1-PDC patient-derived endometrial carcinoma cell line growth inhibition [POLQ]
Conditions: second compound 1 µM; first compound 0.1 µM; stronger effect = lower value
Write the answer as a number in %, unit excluded.

{"compound": "CCCS(=O)(=O)Nc1ccc(F)c(C(=O)c2c[nH]c3ncc(-c4ccc(Cl)cc4)cc23)c1F + COC1C(OC(N)=O)C(O)C(Oc2ccc3c(O)c(NC(=O)c4ccc(O)c(CC=C(C)C)c4)c(=O)oc3c2C)OC1(C)C", "value-measured": 95.7}
{"compound": "CC1COCCN1c1cc(-c2ccnn2C)c2ccnc(-c3ccn[nH]3)c2n1 (stereo not drawn) + Nc1ccc(C#CCN(C(=O)Cc2ncc(C(F)(F)F)cc2C(F)(F)F)c2ccc(F)cc2)nn1", "value-measured": 69.6}

Now examine the next entry.
Any idea what viability, T/C was measured for O=C(Nc1ccc(O)c(NS(=O)(=O)c2ccc(F)cc2)c1)c1ccc(-c2ccccc2)cc1 + Nc1ccc(C#CCN(C(=O)Cc2ncc(C(F)(F)F)cc2C(F)(F)F)c2ccc(F)cc2)nn1 ?
106

---

Parameter: viability, T/C. Scope: all listed entries.
System: 926638-142-R-J1-PDC complex spheroid viability
Assay: Anticancer human tumor 926638-142-R-J1-PDC cell line growth inhibition [POLQ];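 further: spheroids exposed to drugs for one week before readout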;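 on viability, T/C: percent viability relative to DMSO vehicle control wells set as 100%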
Details: second compound 0.0316 µM; first compound 3.16 µM; stronger effect = lower value
Write the answer as a number in %, unit excluded.

{"compound": "COc1cccc2c1C(=O)c1c(O)c3c(c(O)c1C2=O)CC(O)(C(=O)CO)CC3OC1CC(N)C(O)C(C)O1 (stereo not given) + COC1C(OC(N)=O)C(O)C(Oc2ccc3c(O)c(NC(=O)c4ccc(O)c(CC=C(C)C)c4)c(=O)oc3c2C)OC1(C)C", "viability, T/C (%)": 0.18}
{"compound": "Nc1ccn(C2OC(CO)C(O)C2(F)F)c(=O)n1 (stereo not given) + Cc1cccc(N(C)C(=O)C2C(O)CCN2c2nc(C)cc(C(F)(F)F)c2C#N)c1", "viability, T/C (%)": 44.8}
{"compound": "CC(C)n1c(=O)n(C)c2cnc3cc(F)c(-c4ccc(OCCCN5CCCCC5)nc4)cc3c21 + Cc1cccc(N(C)C(=O)C2C(O)CCN2c2nc(C)cc(C(F)(F)F)c2C#N)c1", "viability, T/C (%)": 94.1}
{"compound": "O=C(Nc1ccc(O)c(NS(=O)(=O)c2ccc(F)cc2)c1)c1ccc(-c2ccccc2)cc1 + Nc1ccc(C#CCN(C(=O)Cc2ncc(C(F)(F)F)cc2C(F)(F)F)c2ccc(F)cc2)nn1", "viability, T/C (%)": 95.7}

Now examine the next entry.
Any idea what viability, T/C was measured for C=CC(=O)N1CCN(c2nc(=O)n(-c3c(C)ccnc3C(C)C)c3nc(-c4c(O)cccc4F)c(F)cc23)C(C)C1 (stereo not given) + Cc1cccc(N(C)C(=O)C2C(O)CCN2c2nc(C)cc(C(F)(F)F)c2C#N)c1 ?
66

---

Test system: 926638-142-R-J1-PDC complex spheroid viability
Assay: Anticancer human tumor 926638-142-R-J1-PDC cell line growth inhibition [POLQ];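 further: spheroids exposed to drugs for one week before readout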
Settings: curve of first compound; second compound 10 µM
readout: IC50 (nM)
Write the answer as a number in nM, unit excluded.

Check out these entries, answers already filled in.
{"compound": "CCc1cc2c(N3CCc4c(cc(Cn5ccnc5)cc4-c4cn(C)nc4C(F)(F)F)C3=O)ccnc2c(OC)n1 + COC1C(OC(N)=O)C(O)C(Oc2ccc3c(O)c(NC(=O)c4ccc(O)c(CC=C(C)C)c4)c(=O)oc3c2C)OC1(C)C", "value-measured": 299}
{"compound": "CC1COCCN1c1cc(C2(S(C)(=N)=O)CC2)nc(-c2ccnc3[nH]ccc23)n1 (centres undefined) + Cc1cccc(N(C)C(=O)C2C(O)CCN2c2nc(C)cc(C(F)(F)F)c2C#N)c1", "value-measured": 4050}
{"compound": "CC(=O)O[C@H]1C(=O)[C@@]2(C)[C@H]([C@H](OC(=O)c3ccccc3)[C@]3(O)C[C@H](OC(=O)[C@H](O)[C@@H](NC(=O)c4ccccc4)c4ccccc4)C(C)=C1C3(C)C)[C@]1(OC(C)=O)CO[C@@H]1C[C@@H]2O + Cc1cccc(N(C)C(=O)C2C(O)CCN2c2nc(C)cc(C(F)(F)F)c2C#N)c1", "value-measured": 817}

Now examine the next entry.
926638-142-R-J1-PDC complex spheroid viability / IC50 / CC[C@@]1(O)C(=O)OCc2c1cc1n(c2=O)Cc2cc3c(CN(C)C)c(O)ccc3nc2-1 + Nc1ccc(C#CCN(C(=O)Cc2ncc(C(F)(F)F)cc2C(F)(F)F)c2ccc(F)cc2)nn1 : value?
73.1
